These entries and their values trace back to patent US20260193264A1.

Target: HiBit-BRG1 fusion protein in stable HeLa cell line expressing HiBit-BRG1 and LgBit (Homo sapiens)
Construct: expressed in transfected cells
Experiment: HiBiT-BRG1 cell-based degradation assay (Nano-Glo HiBiT, 24 h)
Conditions: HeLa HiBit-BRG1/LgBit cells, top dose 30 μM, read-out: BRG1 HiBit Degradation Maximum (%)
Quantity: Dmax

Study these solved cases before continuing.
Molecule | Dmax
Cc1ncsc1-c1ccc([C@H](C)NC(=O)[C@@H]2C[C@@H](O)CN2C(=O)C(C(C)C)n2cc(N3CCN(CC4CCN(c5ccc6nnc(-c7ccccc7O)cc6c5)CC4)CC3)nn2)cc1 (stereo partly shown) | > 75%
Cc1ncsc1-c1ccc([C@H](C)NC(=O)[C@@H]2C[C@@H](O)CN2C(=O)[C@H](C(C)C)n2cnc(N3CC4(CN(c5ccc6cc(-c7ccccc7O)nnc6c5)C4)C3)c2)cc1 | < 50%
Cc1ncsc1-c1ccc([C@H](C)NC(=O)[C@@H]2C[C@@H](O)CN2C(=O)[C@@H](c2cc(N3CC4(CC(c5ccc6nnc(-c7ccccc7O)cc6c5)C4)C3)no2)C(C)C)cc1 | > 75%
Cc1ncsc1-c1ccc([C@H](C)NC(=O)[C@@H]2C[C@@H](O)CN2C(=O)[C@@H](c2cc(N3CCC4(CC3)CC(c3ccc5cc(-c6ccccc6O)nnc5c3)C4)no2)C(C)C)cc1 | > 75%
Cc1ncsc1-c1ccc([C@H](C)NC(=O)[C@@H]2C[C@@H](O)CN2C(=O)[C@@H](c2cc(N3CC4(CN(c5ccc6nnc(-c7ccccc7O)cc6c5)C4)C3)no2)C(C)C)cc1 | < 50%

Hi team, please reply with Dmax for each item in this list.
1. Cc1ncsc1-c1ccc([C@H](C)NC(=O)[C@@H]2C[C@@H](O)CN2C(=O)[C@@H](c2cc(N3CCN4CCN(c5ccc6nnc(-c7ccccc7O)cc6c5)CC4C3)no2)C(C)C)cc1 (stereo partly shown)
2. Cc1ncsc1-c1ccc([C@H](C)NC(=O)[C@@H]2C[C@@H](O)CN2C(=O)[C@@H](c2cc(N3CCC4(CC3)CC(Oc3ccc5nnc(-c6ccccc6O)cc5c3)C4)no2)C(C)C)cc1 (single isomer, unassigned)
3. Cc1ncsc1-c1ccc([C@H](C)NC(=O)[C@@H]2C[C@@H](O)CN2C(=O)[C@@H](c2cc(N3CC4(C3)CN(c3cc5nnc(-c6ccccc6O)cc5cc3N(C)C)C4)no2)C(C)C)cc1
4. Cc1ncsc1-c1ccc([C@H](C)NC(=O)[C@@H]2C[C@@H](O)CN2C(=O)[C@@H](c2cc(N3CCC(N4CC5(CN(Cc6ccc7cc(-c8ccccc8O)nnc7c6)C5)C4)CC3)no2)C(C)C)cc1
5. Cc1ncsc1-c1ccc([C@H](C)NC(=O)[C@@H]2C[C@@H](O)CN2C(=O)[C@@H](c2cc(N3C[C@H]4CN(c5ccc6cc(-c7ccccc7O)nnc6c5)C[C@H]4C3)no2)C(C)C)cc1
6. Cc1ncsc1-c1ccc([C@H](C)NC(=O)[C@@H]2C[C@@H](O)CN2C(=O)[C@@H](c2cc(-c3cnc(N4CC[C@H](c5ccc6nnc(-c7ccccc7O)cc6c5)C4)nc3)no2)C(C)C)cc1

["< 50%", "> 75%", "> 75%", "< 50%", "> 50%", "> 75%"]

====

Target: HiBit-BRG1 fusion protein in stable HeLa cell line expressing HiBit-BRG1 and LgBit (Homo sapiens, UniProt P51532)
Construct: expressed in transfected cells
Sequence (P51532 whole entry, the tested form may be a part): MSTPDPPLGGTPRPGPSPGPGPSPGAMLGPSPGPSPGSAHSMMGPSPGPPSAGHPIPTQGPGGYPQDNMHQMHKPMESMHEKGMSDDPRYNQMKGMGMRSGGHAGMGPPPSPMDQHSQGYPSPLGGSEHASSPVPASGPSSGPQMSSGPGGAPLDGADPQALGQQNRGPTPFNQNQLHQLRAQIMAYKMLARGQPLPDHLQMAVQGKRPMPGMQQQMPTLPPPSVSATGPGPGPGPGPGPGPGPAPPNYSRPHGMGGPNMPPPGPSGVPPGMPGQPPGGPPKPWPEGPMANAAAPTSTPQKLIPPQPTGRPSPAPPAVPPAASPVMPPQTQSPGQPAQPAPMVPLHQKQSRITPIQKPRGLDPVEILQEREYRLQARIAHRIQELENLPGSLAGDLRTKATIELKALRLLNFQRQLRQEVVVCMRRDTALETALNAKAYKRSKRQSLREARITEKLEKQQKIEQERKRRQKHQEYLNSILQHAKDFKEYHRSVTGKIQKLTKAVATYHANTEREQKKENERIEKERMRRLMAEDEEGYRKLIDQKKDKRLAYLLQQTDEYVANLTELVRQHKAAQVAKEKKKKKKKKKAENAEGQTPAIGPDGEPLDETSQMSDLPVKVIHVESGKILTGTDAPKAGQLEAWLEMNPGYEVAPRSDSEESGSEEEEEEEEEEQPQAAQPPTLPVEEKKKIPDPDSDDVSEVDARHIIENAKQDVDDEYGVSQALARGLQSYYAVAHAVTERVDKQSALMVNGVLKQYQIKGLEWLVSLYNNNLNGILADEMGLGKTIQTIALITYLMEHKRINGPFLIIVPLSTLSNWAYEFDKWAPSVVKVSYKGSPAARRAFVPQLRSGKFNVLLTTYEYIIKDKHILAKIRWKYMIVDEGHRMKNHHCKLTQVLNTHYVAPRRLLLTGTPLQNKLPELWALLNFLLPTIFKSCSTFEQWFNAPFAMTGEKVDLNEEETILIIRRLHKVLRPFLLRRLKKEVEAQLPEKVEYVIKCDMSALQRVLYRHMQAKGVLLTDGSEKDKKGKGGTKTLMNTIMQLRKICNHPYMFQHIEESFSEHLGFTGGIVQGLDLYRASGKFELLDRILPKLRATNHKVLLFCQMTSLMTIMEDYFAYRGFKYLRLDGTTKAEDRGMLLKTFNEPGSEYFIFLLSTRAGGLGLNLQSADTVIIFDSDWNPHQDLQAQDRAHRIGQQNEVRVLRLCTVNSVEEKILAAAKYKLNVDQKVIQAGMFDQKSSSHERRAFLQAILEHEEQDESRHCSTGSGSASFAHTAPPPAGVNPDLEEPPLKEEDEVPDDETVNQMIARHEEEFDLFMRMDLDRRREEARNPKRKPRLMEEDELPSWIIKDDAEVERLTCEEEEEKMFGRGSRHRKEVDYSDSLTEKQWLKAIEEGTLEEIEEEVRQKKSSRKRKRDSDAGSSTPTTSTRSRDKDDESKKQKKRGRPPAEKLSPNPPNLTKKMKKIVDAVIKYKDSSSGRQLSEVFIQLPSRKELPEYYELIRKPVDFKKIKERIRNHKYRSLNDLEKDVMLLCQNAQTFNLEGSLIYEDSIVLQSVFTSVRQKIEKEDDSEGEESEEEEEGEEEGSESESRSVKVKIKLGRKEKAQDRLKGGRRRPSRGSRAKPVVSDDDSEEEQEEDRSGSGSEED
Experiment: HiBiT-BRG1 cell-based degradation assay (Nano-Glo HiBiT, 24 h)
Conditions: HeLa HiBit-BRG1/LgBit cells, top dose 30 μM, read-out: BRG1 HiBit Degradation Maximum (%)
Could you please report measured Dmax for the items listed next?

Smiles str | Assay result
Cc1ncsc1-c1ccc([C@H](C)NC(=O)[C@@H]2C[C@@H](O)CN2C(=O)[C@@H](c2cccc(N3CC4(C3)CN(c3ccc5cc(-c6ccccc6O)nnc5c3)C4)c2)C(C)C)cc1 | < 50%
Cc1nc(N2CCC(c3ccc4nnc(-c5ccccc5O)cc4c3)CC2)ccc1-c1cc([C@H](C(=O)N2C[C@H](O)C[C@H]2C(=O)N[C@@H](C)c2ccc(-c3scnc3C)cc2)C(C)C)on1 | > 50%
Cc1ncsc1-c1ccc([C@H](C)NC(=O)[C@@H]2C[C@@H](O)CN2C(=O)[C@H](C2CCC2)n2cc(N3CC4(CN(c5ccc6cc(-c7ccccc7O)nnc6c5)C4)C3)nn2)cc1 | < 50%
Cc1ncsc1-c1ccc([C@H](C)NC(=O)[C@@H]2C[C@@H](O)CN2C(=O)[C@@H](c2cc(-c3ccc4nnc(-c5ccccc5O)cc4c3)no2)C(C)C)cc1 | > 75%

Here is another molecule to look at.
Give Dmax for the following molecule: Cc1ncsc1-c1ccc([C@H](C)NC(=O)[C@@H]2C[C@@H](O)CN2C(=O)[C@@H](c2cc(N3CCC4(CCC(c5ccc6cc(-c7ccccc7O)nnc6c5)CC4)CC3)no2)C(C)C)cc1
> 75%
